# testName: modulators of HCV replicon luciferase signal, primary screen, HCV replication inhibitor project, Huh7 cells, luciferase reporter (AID 1109);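 further: huh7 hepatoma cells harbouring a luciferase neomycin HCV replicon reporter; test concentration not given here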
# runConditions: 48 h, higher = more signal
measure: z-score
Lab note: record the figure alone, no unit after it.

Look over these answered cases.
Cc1ccc([C@H]2C(C(=O)O)=C[C@@H](C(C)(C)C)N2S(=O)(=O)c2ccc(C)cc2)cc1    0.0372
CCOC(=O)C1=C[C@@H](C(C)(C)C)N(S(=O)(=O)c2ccc(C)cc2)[C@H]1c1ccc(C)cc1    -1.04
COc1ccc([Si](C)(C)[C@H]2[C@H](CC(=O)N3CCC[C@H]3CO)O[C@@]3(C(=O)N(Cc4ccc(N5CCC5=O)cc4)c4ccccc43)[C@@H]2C)cc1    -1.88

**Query** Fill in: z-score of COCC1C2CC[C@H]3C(OCc4ccc(OC)cc4)OC[C@]4(C)[C@H]3C2=C(CN4C(=O)OC(C)(C)C)[C@H](C)C1COC (some centres not stated) is ___
**Result** -0.733

**Query** Fill in: z-score of `C=C(/C(=C/C[C@H](OC(=O)c1ccncc1)c1ccccc1OCCO)c1cnc2ccccc2c1)C(C)C` is ___
**Result** -2.63

**Query** Fill in: z-score of `CC(C)CNC(=O)[C@@]1(C)c2ccccc2C(=O)N(Cc2cc(C(F)(F)F)cc(C(F)(F)F)c2)[C@H]1c1ccc(CO)cc1` is ___
**Result** -0.447

**Query** Fill in: z-score of `CN(C)C(=O)[C@@]1(CCC(=O)OC(C)(C)C)N=C(c2ccc(OCCCO)cc2)O[C@H]1c1ccccc1CN=[N+]=[N-]` is ___
**Result** -1.61
